# assayed_system: KDR (human, UniProt P35968 20-1356)
# Sequence (P35968 20-1356): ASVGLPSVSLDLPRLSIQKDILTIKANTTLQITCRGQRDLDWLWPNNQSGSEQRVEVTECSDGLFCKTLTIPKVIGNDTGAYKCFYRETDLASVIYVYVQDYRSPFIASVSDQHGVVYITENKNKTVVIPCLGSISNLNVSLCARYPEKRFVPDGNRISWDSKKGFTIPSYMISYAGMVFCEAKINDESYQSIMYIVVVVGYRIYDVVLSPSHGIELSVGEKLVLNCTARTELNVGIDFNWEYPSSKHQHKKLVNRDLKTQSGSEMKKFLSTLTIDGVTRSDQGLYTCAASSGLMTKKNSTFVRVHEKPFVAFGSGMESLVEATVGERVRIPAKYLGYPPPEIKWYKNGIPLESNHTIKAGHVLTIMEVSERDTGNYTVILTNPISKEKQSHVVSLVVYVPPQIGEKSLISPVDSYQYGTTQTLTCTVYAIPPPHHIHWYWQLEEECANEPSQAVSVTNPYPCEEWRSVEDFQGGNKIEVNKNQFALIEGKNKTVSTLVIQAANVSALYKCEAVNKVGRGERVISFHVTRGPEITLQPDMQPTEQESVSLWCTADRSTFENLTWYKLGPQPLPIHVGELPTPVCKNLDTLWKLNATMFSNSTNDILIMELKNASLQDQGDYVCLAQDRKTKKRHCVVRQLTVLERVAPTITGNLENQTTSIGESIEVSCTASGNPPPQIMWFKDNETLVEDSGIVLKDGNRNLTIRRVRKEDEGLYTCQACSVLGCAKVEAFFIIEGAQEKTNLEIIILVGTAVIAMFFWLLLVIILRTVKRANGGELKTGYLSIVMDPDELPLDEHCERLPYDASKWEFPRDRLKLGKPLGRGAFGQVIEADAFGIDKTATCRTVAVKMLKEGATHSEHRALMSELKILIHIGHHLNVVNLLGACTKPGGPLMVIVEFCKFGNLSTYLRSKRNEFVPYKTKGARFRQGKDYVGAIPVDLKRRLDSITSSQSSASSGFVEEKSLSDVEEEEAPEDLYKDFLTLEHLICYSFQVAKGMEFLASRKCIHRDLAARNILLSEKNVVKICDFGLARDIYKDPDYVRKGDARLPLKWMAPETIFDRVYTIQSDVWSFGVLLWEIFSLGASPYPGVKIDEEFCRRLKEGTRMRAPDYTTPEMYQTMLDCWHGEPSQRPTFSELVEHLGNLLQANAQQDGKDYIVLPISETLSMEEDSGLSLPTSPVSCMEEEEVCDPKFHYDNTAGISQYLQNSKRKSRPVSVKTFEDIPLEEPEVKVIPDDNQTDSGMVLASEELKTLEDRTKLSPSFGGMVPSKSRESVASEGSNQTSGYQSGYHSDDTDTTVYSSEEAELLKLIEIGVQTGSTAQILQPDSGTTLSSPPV
# assay_protocol: cell-based or functional assay
# Activity at 133 nM (% Inhibition), 1-hour Pre-incubation at 4° C., N = 2 values compiled below
readout: Activity at 133 nM (% Inhibition), 1-hour Pre-incubation at 4° C., N = 2

binder="32G7 (antibody, V domains shown) VH: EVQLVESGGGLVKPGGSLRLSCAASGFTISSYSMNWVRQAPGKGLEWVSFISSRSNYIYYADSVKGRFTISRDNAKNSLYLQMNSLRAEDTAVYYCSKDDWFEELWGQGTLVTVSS VL: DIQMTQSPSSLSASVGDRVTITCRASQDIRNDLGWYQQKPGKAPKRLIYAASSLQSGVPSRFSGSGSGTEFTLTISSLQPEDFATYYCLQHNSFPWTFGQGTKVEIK" recorded_measurement=79%
binder="1G6 (antibody, V domains shown) VH: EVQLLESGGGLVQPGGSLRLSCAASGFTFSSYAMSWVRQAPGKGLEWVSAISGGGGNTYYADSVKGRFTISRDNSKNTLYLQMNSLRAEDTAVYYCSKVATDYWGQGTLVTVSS VL: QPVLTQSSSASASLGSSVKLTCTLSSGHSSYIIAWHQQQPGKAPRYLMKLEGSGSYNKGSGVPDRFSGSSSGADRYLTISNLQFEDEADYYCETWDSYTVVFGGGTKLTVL" recorded_measurement=50%
binder="29F7 (antibody, V domains shown) VH: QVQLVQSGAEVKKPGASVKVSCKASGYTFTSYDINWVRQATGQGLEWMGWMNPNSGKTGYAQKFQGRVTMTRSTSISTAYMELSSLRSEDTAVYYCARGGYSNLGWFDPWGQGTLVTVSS VL: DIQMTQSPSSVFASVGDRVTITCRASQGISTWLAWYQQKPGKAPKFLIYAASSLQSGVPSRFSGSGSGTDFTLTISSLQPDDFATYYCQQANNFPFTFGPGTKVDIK" recorded_measurement=52%
